# system_tested: T1, human ENTPD2, full length, on cells (human, UniProt Q9Y5L3 1-495)
# T1 sequence: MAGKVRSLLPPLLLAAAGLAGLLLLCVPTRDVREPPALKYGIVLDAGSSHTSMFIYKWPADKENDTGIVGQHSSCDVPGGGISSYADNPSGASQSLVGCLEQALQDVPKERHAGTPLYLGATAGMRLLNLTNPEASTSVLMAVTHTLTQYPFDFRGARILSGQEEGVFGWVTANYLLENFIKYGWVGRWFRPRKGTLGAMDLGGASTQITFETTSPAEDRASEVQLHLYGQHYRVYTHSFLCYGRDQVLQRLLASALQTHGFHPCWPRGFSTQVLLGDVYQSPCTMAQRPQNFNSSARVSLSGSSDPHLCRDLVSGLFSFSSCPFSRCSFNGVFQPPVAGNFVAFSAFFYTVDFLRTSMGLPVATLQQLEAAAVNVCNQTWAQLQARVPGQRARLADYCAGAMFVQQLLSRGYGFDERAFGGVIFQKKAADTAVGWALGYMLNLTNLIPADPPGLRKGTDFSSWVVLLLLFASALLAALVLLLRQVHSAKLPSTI
# run_description: cell-based or functional assay
Recorded RKO Assay IC50 by entry
Quick note: give the figure in nM, leave out the unit.

# example entries with known answers
Write down RKO Assay IC50 measured for item ANTI-HUMAN ENTPD2 MAB4 (antibody, human IgG1, kappa, V domains shown) VH: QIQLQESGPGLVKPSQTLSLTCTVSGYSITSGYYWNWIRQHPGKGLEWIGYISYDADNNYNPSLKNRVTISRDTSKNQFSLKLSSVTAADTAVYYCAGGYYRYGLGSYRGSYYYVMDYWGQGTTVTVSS VL: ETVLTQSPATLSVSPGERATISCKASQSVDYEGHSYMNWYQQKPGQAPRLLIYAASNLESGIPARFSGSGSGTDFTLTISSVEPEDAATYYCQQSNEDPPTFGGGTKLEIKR
0.2

Write down RKO Assay IC50 measured for item ANTI-HUMAN ENTPD2 MAB3 (antibody, human IgG1, kappa, V domains shown) VH: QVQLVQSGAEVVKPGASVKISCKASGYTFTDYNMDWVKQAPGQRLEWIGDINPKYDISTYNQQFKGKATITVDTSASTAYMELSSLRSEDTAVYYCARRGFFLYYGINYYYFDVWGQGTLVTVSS VL: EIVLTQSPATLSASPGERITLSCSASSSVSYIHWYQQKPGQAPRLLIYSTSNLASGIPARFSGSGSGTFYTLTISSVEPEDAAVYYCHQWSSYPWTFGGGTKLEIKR
1.6

Alright, here's another binder for you.
Write down RKO Assay IC50 measured for item ANTI-HUMAN ENTPD2 MAB17 (antibody, human IgG1, kappa, V domains shown) VH: EVQLQQFGAELVKPGASVKISCKASGYTFTDYNMDWVKQSHGKSLEWIGDINPKYDISTYNQQFKGKATLTVDKSSSTAYMELRSLTSEDTAVYYCARRGFFLYYGINYYYFDVWGAGTTVTVSS VL: QIVLTQSPAIMSASLGEEITLTCSASSSVSYIHWYQQKSGTSPTLLIYSTSNLASGVPSRFSGSGSGTFYSLTISSVEAEDAADYYCHQWSSYPWTFGGGTKLEIKR
0.5
